# System: SMN2 minigene mRNA (SMN2-A minigene) in HEK293H cells
# test_summary: SMN2 minigene mRNA splicing RT-qPCR assay in cultured cells
# Format: cell-based, human
# particulars: Homo sapiens, HEK293-H; concentration increasing full length SMN2 mRNA 1.5-fold relative to vehicle-treated cells; HEK293H cells with SMN2-A minigene, 24 hours, 7-point concentration data; read-out: EC1.5x for production of full length SMN2 mRNA
# Method: The reverse transcription-quantitative PCR-based (RT-qPCR) assay is used to quantify the level of the full length SMN2 minigene mRNA containing SMN2 exon 7 in a HEK293H cell line stably transfected with said minigene and treated with a test compound. Protocol. […] The increase of SMN2 minigene FL mRNA relative to that in cells treated with vehicle control is determined from real-time PCR data using a modified ΔΔCt method (as described in Livak and Schmittgen, Methods, 2001, 25:402-8). […]
reported_property: EC (1.5-fold increase)

Req: Which EC (1.5-fold increase) value is on record for "COc1ccc(-c2cc(=O)n3cc(N4CCN[C@H](C)C4)ccc3n2)cc1F" ?
Resp: 0.1 to 0.3 µM

Req: Requested field: EC (1.5-fold increase). Item: "CN[C@H]1CC[C@@H](c2ccc3nc(-c4ccc(OC)c(OC)c4)cc(=O)n3c2)CC1"
Resp: 0.1 to 0.3 µM

Req: Please look up its EC (1.5-fold increase): "CCc1nc(C)cn2nc(-c3cc(=O)n4cc(N(C)CCNC)ccc4n3)cc12"
Resp: 0.1 to 0.3 µM

Req: Given the entry "CCN1CCN(c2ccc3nc(-c4cccc(OC)c4)cc(=O)n3c2)CC1" , report its measured EC (1.5-fold increase).
Resp: 3 to 30 µM

Req: # lookup: EC (1.5-fold increase) of "Cn1ccc2cc(-c3cc(=O)n4cc(N5CCNCC5)ccc4n3)cnc21"
Resp: 0.3 to 1 µM

Req: Report EC (1.5-fold increase) for "CN1CCCN(c2ccc3nc(-c4ccc5c(c4)OCCO5)cc(=O)n3c2)CC1" please.
Resp: 3 to 30 µM

Req: I have this molecule here, "Cc1cc(-c2cc(=O)n3cc(N4CCN[C@H](C)C4)ccc3n2)cc2cn(C)nc12" , and I need its recorded EC (1.5-fold increase).
Resp: < 0.1 µM

Req: Give its EC (1.5-fold increase) value. Item: "Cc1nc2cc(-c3cc(=O)n4cc(N5CCN[C@@H](C)C5)ccc4n3)ccc2o1"
Resp: 0.3 to 1 µM

* * *

So I've got a bunch of molecules here, and I need their melting point values.

Req: Name the recorded melting point for "COc1ccc(-c2cc(=O)n3cc(N4CCNCC4)ccc3c2C#N)cc1OC" .
Resp: 199 to 202 °C

Req: Fill in: melting point of "COc1ccc(-c2ccc3nc(N4CC[C@@H](N(C)C)C4)cc(=O)n3c2)cc1F" is ___
Resp: 167 to 170 °C

Req: Quick one: melting point of "COc1ccc(-c2cc(=O)n3cc(N4CCC(N(C)C)CC4)ccc3n2)cc1OC" ?
Resp: 158 to 161 °C

Req: Bench note: what melting point did "CCc1nc(C)cn2nc(-c3cc(=O)n4cc(N5CCC(N(C)C)CC5)ccc4n3)cc12" show?
Resp: 258 to 260 °C

Req: Recorded melting point for "COc1ccc(-c2cc(=O)n3cc(NC4CCNCC4)cc(F)c3n2)cc1OC" , please?
Resp: 224 to 226 °C

Req: What does the data say about its melting point? Entry: "COc1ccc(-c2cc(=O)n3cc(C4CCN(C)CC4)cc(C)c3n2)cc1OC"
Resp: 170 to 174 °C

Req: Returns the measured melting point for the input molecule. Input: "CCN1CC=C(c2ccc3nc(-c4ccc(OC)c(OC)c4)cc(=O)n3c2)CC1"
Resp: 170 to 172 °C

Req: Consider the molecule shown here: "COc1ccc(-c2cc(=O)n3cc(N4CCNCC4)ccc3n2)cc1F" What is its recorded melting point?
Resp: 191 to 195 °C
